test system: CP247; assay: qHTS profiling for inhibitors of Plasmodium falciparum proliferation (AID 504749); note: nearly all actives have a fitted effect of over 60% in size; details: P. falciparum in erythrocytes, SYBR Green DNA, 72 h; series mostly up to 28.7 µM
Records with an inconclusive call do not appear. The source made the active and inactive calls. Calls come from the whole dose curve; as a rule, active = well fitted inhibition curve with a large enough effect; inconclusive = small, poorly fitted or top-dose-only effect; inactive = flat fitted curve, though single readings scatter.
Pick one and only one: True = active, False = inactive

MOLECULE	TESTED_ON	QUALITATIVE_LABEL
COc1cccc2c1C(=O)c1c(O)c3c(c(O)c1C2=O)C[C@@](O)(C(=O)CO)C[C@@H]3OC1CC(N)C(O)C(C)O1 (some centres not stated)	CP247	True

stdin: Give the logged outcome of this assay for the following molecule: O=C1NC(=O)C2C3C=CC(C3)C12 (configuration not stated)
stdout: False

stdin: Record lookup: outcome of this test for COc1cc2c(cc1O)CCN[C@@]21CS[C@H]2c3c(OC(C)=O)c(C)c4c(c3C(COC1=O)N1C2C2c3c(cc(C)c(OC)c3O)CC([C@@H]1O)N2C)OCO4 (some centres not stated) ?
stdout: True

stdin: Name the outcome recorded for C[C@]12CC[C@@H]3c4ccc(O)cc4CC[C@H]3[C@@H]1CCC2OC(=O)CCC1CCCC1 (some centres not stated) in the assay.
stdout: False

stdin: Recorded test outcome, item CCCC[C@H]1C(=O)N(c2ccccc2)N(c2ccc(O)cc2)C1=O
stdout: False

###

Target: Mitogen-activated protein kinase 10 (Mus musculus) (UniProt Q61831)
Assay: JNK3 AlphaScreen Assay (AID 530);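 note: kinase came from lysate of stimulated human HepG2 cells; signal reports phosphorylation of biotinylated GST-cJun 1-79 at Ser73 with 10 µM ATP; % is set by controls: 0 for no effect and ±100 for the full control effect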
Conditions: JNK3 lysate, c-Jun phosphorylation; series mostly up to 57.1 µM
Text: NIH Chemical Genomics Center [NCGC] NIH Molecular Libraries Screening Centers Network [MLSCN] The c-jun N-terminal kinase (JNK) family are serine/threonine protein kinases that phosphorylate c-jun, a component of the transcription factor protein-1 (AP-1). […] A homogeneous AlphaScreen is developed to measure the activity of JNK3. […] The phosphorylation of a biotinylated c-jun substrate by JNK3 can be detected with an antibody raised against phosphorylated c-jun. […]
Inconclusive results are not listed. Active and inactive are the calls of the source. Calls follow the shape of the dose curve; as a rule, active = well fitted curve in either direction with a large enough effect (not every such curve was filed as active); inconclusive = small, poorly fitted or top-dose-only effect, or another doubt; inactive = flat fitted curve, though single readings scatter.
READOUT_NAME: activity change, negative = inhibition

Worked examples follow.
COMPOUND	activity change, negative = inhibition
O=C(Nc1ccc2ccccc2c1)[C@H]1C[C@@H]1[C@H](NP(=O)(c1ccccc1)c1ccccc1)c1ccccc1	inactive
C[C@H](O)[C@@H]1C(=O)N2C(C(=O)O)=C(SCCN=CN)C[C@@H]12	inactive
CC(=O)O[C@@H]1[C@H]([N+]2(C)CCCCC2)C[C@@H]2[C@@H]3CC[C@@H]4C[C@@H](OC(C)=O)[C@H]([N+]5(C)CCCCC5)C[C@@]4(C)[C@H]3CC[C@]21C	inactive
CC1(C)CCC[C@@]2(C)[C@@H]1CC[C@]1(C)OC(=O)C[C@@H]21	inactive
COc1cccc(OC)c1OCCNC[C@@H]1CSc2ccccc2O1	inactive

Memo: O=C1C[C@H](c2ccccc2)Oc2cc(O)cc(O)c21 , reported activity change, negative = inhibition: inactive

Lookup result for CCCC[C@@H]1C[C@H]1C(NC(=O)c1ccc(C(F)(F)F)cc1)c1ccc(C(=O)OC)cc1 (stereo not given in full) ; measured activity change, negative = inhibition: inactive

Record CC[C@]1([C@H]2O[C@@H]([C@@H]3O[C@](O)(CO)[C@@H](C)C[C@H]3C)C[C@H]2C)CC[C@@H]([C@]2(C)CC[C@@]3(C[C@@H](O)[C@@H](C)[C@@H]([C@H](C)[C@H](OC)[C@H](C)C(=O)O)O3)O2)O1 , field activity change, negative = inhibition: inactive

Documented activity change, negative = inhibition of CCCCCCCC[N+](CCCCCCCC)(CCCCCCCC)CCCCCCCC : inactive

Note to self: activity change, negative = inhibition recorded for CC(C)C[C@@H](CC(=O)N[C@@H](CCC(=O)O)CC(=O)O)NC(=O)[C@@H]1CCCC[C@H]1NC(=O)C[C@H](CCCN)NC(=O)C[C@H](Cc1c[nH]c2ccccc12)NC(=O)[C@@H]1CCCC[C@H]1N was inactive

###

system: CP265; experiment: qHTS profiling for inhibitors of Plasmodium falciparum proliferation (AID 504749); note: nearly all actives have a fitted effect of over 60% in size; details: P. falciparum in erythrocytes, SYBR Green DNA, 72 h; series mostly up to 28.7 µM
Results filed as inconclusive are left out. The source made the active and inactive calls. Calls come from the whole dose curve; as a rule, active = well fitted inhibition curve with a large enough effect; inconclusive = small, poorly fitted or top-dose-only effect; inactive = flat fitted curve, though single readings scatter.
Mark one answer only. Choices: true (1) = active, false (0) = inactive

Sample answers from the record:
MOLECULE	QUALITATIVE_LABEL
C[C@]12CC[C@@H]3c4ccc(O)cc4C[C@@H](CCCCCCCCCS(=O)CCCC(F)(F)C(F)(F)F)C3[C@@H]1CC[C@@H]2O (some centres not stated)	true (1)
CC[C@@]1(O)CC2CN(CCc3c([nH]c4ccccc34)[C@](C(=O)OC)(c3cc4c(cc3OC)N(C)C3[C@@](O)(C(=O)OC)C(OC(C)=O)[C@]5(CC)C=CCN6CC[C@@]43C65)C2)C1 (some centres not stated)	true (1)
O=C(OC[C@@H]1O[C@@](O)(COC(=O)c2cccnc2)[C@H](OC(=O)c2cccnc2)[C@H]1OC(=O)c1cccnc1)c1cccnc1	false (0)
O=C1[C@@H]2C[C@@H]3C[C@H]1C[C@@](O)(C3)C2	false (0)
Oc1cc2cc(CCN3CCN(c4nsc5ccccc45)CC3)c(Cl)cc2[nH]1	false (0)

Now, please, on to the next molecule.
stdin: What call does the record list for CC1CN(c2c(F)c(N)c3c(=O)c(C(=O)O)cn(C4CC4)c3c2F)CC(C)N1 (configuration not stated) ?
stdout: false (0)

###

assay: NFAT Signaling Pathway (AID 444); settings: Jurkat NFAT-bla M1, carbachol, beta-lactamase ratio, 5 h; at 17.2 µM (top of the series) unless noted;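 note: carbachol stimulus at about its EC50 of 1 µM final; % is set by controls: 0 for no effect and ±100 for the full control effect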
Inconclusive results are not listed. Calls of active or inactive are those of the source. Calls come from the whole dose curve; as a rule, active = well fitted curve in either direction with a large enough effect (not every such curve was filed as active); inconclusive = small, poorly fitted or top-dose-only effect, or another doubt; inactive = flat fitted curve, though single readings scatter.
READOUT_NAME: activity change, negative = inhibition

> print(dat)
                                   molecule        recorded.measurement
1  C[C@H](N)C1CCC(C(=O)Nc2ccncc2)CC1 (stereo partly specified)  3.2% [at 38 µM] (inactive)

Given item Cn1c(=O)c2c(nc(Br)n2CCSc2ncccn2)n(C)c1=O , the value recorded as its activity change, negative = inhibition is 8.82% (inactive)

Looking up N#Cc1c2c(c(-c3ccco3)[nH]c1=O)CCCC2 , I see its activity change, negative = inhibition listed as 10.5% (inactive)

Lab note: measured activity change, negative = inhibition of Cn1nnnc1-c1cc(Br)ccc1NC(=O)c1ccccc1 was -1.05% (inactive)

Value of activity change, negative = inhibition reported for the molecule O=C(NC1CCS(=O)(=O)C1)N1CCCCC1 (stereo unspecified) is -4.07% (inactive)

// sample CCN(CC)S(=O)(=O)c1ccc2c(c1)c(C(=O)O)cn2C , its activity change, negative = inhibition was -1.02% (inactive)

// sample CCSc1nc(N)c(C#N)c(-c2ccccc2Cl)c1C#N , its activity change, negative = inhibition was -7.47% (inactive)

###

Test system: ATS95
Assay: qHTS profiling for inhibitors of Plasmodium falciparum proliferation (AID 504749); note: nearly all actives have a fitted effect of over 60% in size
Conditions: P. falciparum in erythrocytes, SYBR Green DNA, 72 h; series mostly up to 28.7 µM
Experimental: NIH National Institute of Allergy and Infectious Diseases [NIAID] NIH Chemical Genomics Center [NCGC] […] Because mature erythrocytes lack DNA, only Plasmodium-derived DNA is detected. NCGC Assay Protocol Summary: The SYBR Green viability assay was adapted from a method described previously (Plouffe et al., 2008). […] The following morning, fluorescence intensity at 485(14) nm excitation and 535(25) nm emission wavelengths was measured on an EnVision (Perkin Elmer) plate reader. […]
Results filed as inconclusive are left out. The source made the active and inactive calls. The call rests on the fitted dose curve; in most records, active means well fitted inhibition curve with a large enough effect; inconclusive means small, poorly fitted or top-dose-only effect; inactive means flat fitted curve, though single readings scatter.
Choose one outcome from this list and give only that: active, inactive

Solved entries:
COMPOUND	QUALITATIVE_LABEL
C[C@]12CCC(=O)C=C1[C@@H]1C[C@H]1[C@H]1[C@@H]3[C@@H]4C[C@H]4[C@@]4(CCC(=O)O4)[C@@]3(C)CC[C@@H]12	inactive
CCN(CC)C(=O)[C@@]1(c2ccccc2)C[C@@H]1CN	inactive
CO/N=C(/C(=O)N[C@@H]1C(=O)N2C(C(=O)O)=C(CSc3nc(C)c(CC(=O)O)s3)CS[C@H]12)c1csc(N)n1	inactive

stdin: Status in this test for CC(=O)OC1C([N+]2(C)CCCCC2)C[C@H]2C3CC[C@H]4C[C@H](OC(C)=O)C([N+]5(C)CCCCC5)CC4(C)C3CCC12C (stereo partly specified) ?
stdout: inactive

stdin: Each compound tested received a call. Report the one for OCC1O[C@@H](O[C@@H]2C(CO)OC(O)C(O)C2O)C(O)C(O)C1O (stereo partly specified) .
stdout: inactive

###

Test system: ICS
Test: qHTS profiling for inhibitors of Plasmodium falciparum proliferation (AID 504749); note: nearly all actives have a fitted effect of over 60% in size
Details: P. falciparum in erythrocytes, SYBR Green DNA, 72 h; series mostly up to 28.7 µM
Experimental: NIH National Institute of Allergy and Infectious Diseases [NIAID] NIH Chemical Genomics Center [NCGC] […] Because mature erythrocytes lack DNA, only Plasmodium-derived DNA is detected. NCGC Assay Protocol Summary: The SYBR Green viability assay was adapted from a method described previously (Plouffe et al., 2008). […] The following morning, fluorescence intensity at 485(14) nm excitation and 535(25) nm emission wavelengths was measured on an EnVision (Perkin Elmer) plate reader. […]
Records with an inconclusive call do not appear. Activity calls are given as the source filed them. Calls come from the whole dose curve; as a rule, active = well fitted inhibition curve with a large enough effect; inconclusive = small, poorly fitted or top-dose-only effect; inactive = flat fitted curve, though single readings scatter.
Result category, one only: yes (1) = active, no (0) = inactive

Below are worked cases with known answers.
MOLECULE	QUALITATIVE_LABEL
CC1CCC(C(C)C)C(O)C1 (stereo not given)	no (0)
NC(=O)OC[C@@H]1[C@H](NC(=O)/C(=N/OCC(=O)O)c2csc(N)n2)C(=O)N1S(=O)(=O)O	no (0)
CC[C@]1([C@H]2O[C@@H]([C@@H]3O[C@](O)(CO)[C@@H](C)C[C@H]3C)C[C@H]2C)CC[C@@H]([C@]2(C)CC[C@@]3(C[C@@H](O)[C@@H](C)[C@@H]([C@H](C)[C@H](OC)[C@H](C)C(=O)O)O3)O2)O1	yes (1)
O=C(O)C[CH2][Ge](=[O])[O][Ge](=[O])[CH2]CC(=O)O	no (0)

stdin: Hi, do you know how CC1=C(c2ccc(NN=C(C#N)C#N)cc2)NNC(=O)C1 came out in this test?
stdout: no (0)

stdin: What outcome does the record of this test show for OCC1O[C@@H](O[C@@H]2C(CO)OC(O)C(O)C2O)C(O)C(O)C1O (stereo not given in full) ?
stdout: no (0)
